system.under.test: Met kinase domain (GST fusion protein) (Homo sapiens, UniProt P08581)
Construct: Purified GST fusion protein containing the Met kinase domain
Sequence (P08581 1078-1345 limits assumed): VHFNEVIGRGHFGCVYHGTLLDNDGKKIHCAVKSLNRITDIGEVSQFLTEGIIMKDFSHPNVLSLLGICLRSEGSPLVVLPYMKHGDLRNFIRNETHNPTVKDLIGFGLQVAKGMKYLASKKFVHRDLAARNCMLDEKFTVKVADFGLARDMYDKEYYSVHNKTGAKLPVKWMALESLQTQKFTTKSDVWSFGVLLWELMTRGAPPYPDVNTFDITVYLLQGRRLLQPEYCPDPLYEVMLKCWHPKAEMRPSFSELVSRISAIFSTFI
procedure.text: Met transphosphorylation assay (ELISA, poly(glu-tyr) substrate)
Assay type: biochemical
run.conditions: read-out: Met IC50
measured.endpoint: IC50 (nM)
Numbers only, in nM.

[
  {
    "compound": "Nc1ncc(-c2cccc(NS(=O)(=O)CCN3CCN(C(=O)CO)CC3)c2)nc1OCc1c(F)ccc(F)c1Cl [II-29]",
    "IC50 [nM]": 1820
  },
  {
    "compound": "CS(=O)(=O)Nc1ccc(-c2cnc(N)c(OCc3c(Cl)cccc3Cl)c2)cc1 [Example I-13]",
    "IC50 [nM]": 440
  },
  {
    "compound": "Nc1ncc(-c2ccc(C(=O)O)cc2)cc1OCc1c(Cl)cccc1Cl [Example I-35]",
    "IC50 [nM]": 12800
  },
  {
    "compound": "CC(Oc1nc(-c2ccc(NS(=O)(=O)CCN3CCCC3)cc2)cnc1N)c1c(Cl)ccc(F)c1Cl (centres unmarked) [II-144]",
    "IC50 [nM]": 360
  },
  {
    "compound": "CC(Oc1nc(-c2ccc(C(=O)NCCN3CCOCC3)cc2)cnc1N)c1c(F)ccc(F)c1Cl (centres unmarked) [II-118]",
    "IC50 [nM]": 260
  },
  {
    "compound": "CC(Oc1nc(-c2ccc(C(=O)N3C[C@@H](C)N[C@@H](C)C3)cc2)cnc1N)c1c(F)ccc(F)c1Cl (some centres unmarked) [II-112]",
    "IC50 [nM]": 190
  },
  {
    "compound": "Nc1ncc(-c2ccc3[nH]cc(CN4CCCC4)c3c2)nc1OCc1c(F)ccc(F)c1Cl [II-62]",
    "IC50 [nM]": 350
  },
  {
    "compound": "Nc1ncc(-c2ccc(F)c(F)c2)cc1OCc1c(Cl)cccc1Cl [Example I-21]",
    "IC50 [nM]": 14300
  },
  {
    "compound": "Nc1ncc(-c2cccc3[nH]ccc23)cc1OCc1c(F)cccc1F [Example I-119]",
    "IC50 [nM]": 5800
  },
  {
    "compound": "CC(Oc1nc(-c2ccc(C(=O)NC3CCN(C)CC3)cc2)cnc1N)c1c(Cl)cccc1Cl (centres unmarked) [II-160]",
    "IC50 [nM]": 120
  }
]

Required: IC50, one value per compound below.
1. CN1CCN(C(=O)c2cc3cc(-c4cnc(N)c(OCc5c(Cl)cccc5Cl)c4)ccc3[nH]2)CC1 [Example I-78]
2. Nc1ncc(-c2ccc3[nH]cc(CN4CCCCC4)c3c2)cc1OCc1c(F)ccc(F)c1Cl [Example I-73]
3. CC(=O)N1CCN(CCNC(=O)c2cccc(-c3cnc(N)c(OC(C)c4c(Cl)cccc4Cl)n3)c2)CC1 (centres unmarked) [II-176]
4. CC(Oc1nc(-c2cccc(C(=O)N3CCN(C)CC3)c2)cnc1N)c1c(Cl)cccc1Cl (centres unmarked) [II-181]
5. N#Cc1ccccc1COc1cc(-c2ccc(C(=O)NCCCN3CCOCC3)cc2)cnc1N [Example I-170]

**A:**
180
740
350
250
17300

###

system.under.test: Met kinase domain (GST fusion protein) (Homo sapiens)
Construct: Purified GST fusion protein containing the Met kinase domain
procedure.text: Met transphosphorylation assay (ELISA, poly(glu-tyr) substrate);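 note: Cell-free ELISA with plate-bound poly(Glu:Tyr 4:1) phosphorylated by GST-fused Met kinase domain plus ATP and Mn2+, phosphotyrosine detected by anti-phosphotyrosine antibody with HRP and ABTS read-out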
Type: biochemical
run.conditions: read-out: Met IC50
measured.endpoint: log10 of IC50 (log10 of the value in µM)
Transform log10 | Measure IC50 | Unit µM

Please review the entries below; each comes with its answer.
[
  {
    "compound": "Nc1ncc(-c2ccc3[nH]c(C(=O)NCCN4CCCC4)cc3c2)cc1OCc1c(Cl)cccc1Cl",
    "log10 of IC50": 0.08
  },
  {
    "compound": "Nc1ncc(-c2ccc(C(=O)NCCN3CCOCC3)cc2)cc1OCc1c(F)cccc1Cl",
    "log10 of IC50": 0.81
  },
  {
    "compound": "CC(Oc1nc(-c2cccc(C(=O)NC[C@H](O)CN3CCOCC3)c2)cnc1N)c1c(Cl)ccc(F)c1Cl (some centres unmarked)",
    "log10 of IC50": -0.52
  },
  {
    "compound": "Nc1ncc(-c2ccc(OCCN3CCOCC3)cc2)cc1OCc1csc2ccc(Cl)cc12",
    "log10 of IC50": 0.38
  },
  {
    "compound": "Nc1ncc(Br)cc1OCc1c(F)cccc1Cl [I(e)]",
    "log10 of IC50": 1.30
  }
]

Required: log10 of IC50, one value per compound below.
1. CC(Oc1nc(-c2cccc(C(=O)N3CCN(C)CC3)c2)cnc1N)c1c(Cl)ccc(F)c1Cl (centres unmarked)
2. Nc1ncc(-c2ccc(C(=O)N3CCC[C@H]3CN3CCCC3)cc2)cc1OCc1c(F)cccc1F
3. Nc1ncc(Br)cc1OCc1c(Cl)cccc1Cl

**A:**
1: -0.77; 2: 0.13; 3: 0.72
